Provide the recorded INHIBITION for the entries that follow.
system: Plasmodium falciparum; test: Screen against P. falciparum Asexual Blood Stage (ABS), at 5uM; type: functional, Dd2; details: tested at 5 uM
Hit rate of the full screen: of about 65,000 compounds, about 2,100 (3.2%) showed an effect of 50% or more. The median lay at about -52%. This is one part of a sample in which strong results are shown more often than they occur.
Answer with a number only, understood to be in %.

Please report the measured INHIBITION for NCC(c1cccnc1)N1CCOCC1 (stereo unspecified) tested on Plasmodium falciparum. -122

Please report the measured INHIBITION for Cc1ccc(CN2CCC3(CC2)C(=O)Nc2ccccc23)s1 tested on Plasmodium falciparum. 46.9

Please report the measured INHIBITION for O=C1CSC(c2ccc(O)c(Cl)c2)c2c(n(C3CCOCC3)[nH]c2=O)N1 (stereo unspecified) tested on Plasmodium falciparum. -57.7

Please report the measured INHIBITION for NCC1(c2cccc(Br)c2)CCOCC1 tested on Plasmodium falciparum. 79.5

Please report the measured INHIBITION for OCCCN1CCc2[nH]nc(C(c3ccccc3)c3ccccc3)c2C1 tested on Plasmodium falciparum. 73

Please report the measured INHIBITION for Cc1ccc(CN2CC[C@H]3[C@H]2CC(=O)N3c2cccnc2)o1 tested on Plasmodium falciparum. -38.1

Please report the measured INHIBITION for NC(=O)CC1CC2(CCNCC2)c2cc(F)ccc21 (stereo unspecified) tested on Plasmodium falciparum. -82.7

Please report the measured INHIBITION for Cc1ccc2c(c1)C1(CCNCC1)CC2NC1CC1 (stereo unspecified) tested on Plasmodium falciparum. 74.6

Please report the measured INHIBITION for c1cc(COC[C@]23COC[C@H]2CN(Cc2ccsc2)C3)ccn1 tested on Plasmodium falciparum. 41.6

Please report the measured INHIBITION for Cc1ccc(C(O)CN2CCN(Cc3nccn3C)CC2)cc1C (stereo unspecified) tested on Plasmodium falciparum. 80.4

Please report the measured INHIBITION for CC(C)OCCN(C)CC(c1cccs1)N1CCOCC1 (stereo unspecified) tested on Plasmodium falciparum. 79.9

Please report the measured INHIBITION for O=C(NCc1ccccn1)[C@]12COC[C@H]1CN(C1CCC1)C2 tested on Plasmodium falciparum. -26.3

Please report the measured INHIBITION for COc1ccc2c(c1)C1(CCNCC1)CC2NC1CC1 (stereo unspecified) tested on Plasmodium falciparum. 0.674

Please report the measured INHIBITION for O=S(=O)(c1cccc(Cl)c1)N1C[C@@H]2CCN[C@@H]2C1 tested on Plasmodium falciparum. 88.1

Please report the measured INHIBITION for O=C1OCCC1N1CCN(C(=O)Cc2c[nH]c3ccccc23)CC1 (stereo unspecified) tested on Plasmodium falciparum. -131

Please report the measured INHIBITION for CC(C)CN1C(=O)C2(CCCC2)NC1c1cn(C)c(=O)n(C)c1=O (stereo unspecified) tested on Plasmodium falciparum. -15.3

Please report the measured INHIBITION for CCC(C(=O)N1CCCSCC1)N1CCCC1=O (stereo unspecified) tested on Plasmodium falciparum. -76.1

Please report the measured INHIBITION for Cc1ccccc1-n1cc(C2=CCN(CCN3CCOCC3)CC2)cn1 tested on Plasmodium falciparum. -4.21

Please report the measured INHIBITION for c1cnc(N2C[C@H]3CN(CC4CCOC4)C[C@H]3C2)nc1 (stereo partly specified) tested on Plasmodium falciparum. -53

Please report the measured INHIBITION for Cc1ncsc1CN1C[C@@H](OCc2ccncc2)[C@H]2OCCC[C@H]21 tested on Plasmodium falciparum. -190

Please report the measured INHIBITION for NCC1(c2cccc(C(F)(F)F)c2)CCOCC1 tested on Plasmodium falciparum. 69.9

Please report the measured INHIBITION for O=C1NC2(CCNCC2)CC1c1ccccc1 (stereo unspecified) tested on Plasmodium falciparum. -129

Please report the measured INHIBITION for CC(C)Oc1ncnc2c1CCN(Cc1ccc(F)cc1)CC2 tested on Plasmodium falciparum. 70.8

Please report the measured INHIBITION for Cc1oncc1C(=O)N[C@@H]1CN(C2CCC2)C[C@@H]2CCCO[C@@H]21 tested on Plasmodium falciparum. -114

Please report the measured INHIBITION for Cn1nc(-c2cccs2)cc1[C@H]1CN2CC[C@H]1C[C@@H]2CNS(C)(=O)=O tested on Plasmodium falciparum. -60.1

Please report the measured INHIBITION for Cc1ccc2c(c1)C1(CCNCC1)CC2NC(C)C (stereo unspecified) tested on Plasmodium falciparum. -31.2

Please report the measured INHIBITION for c1ccc2c(c1)C(NC1CCCC1)CC21CCNCC1 (stereo unspecified) tested on Plasmodium falciparum. 75.7

Please report the measured INHIBITION for Cc1ccc2c(c1)C(NC1CC1)CC21CCNCC1 (stereo unspecified) tested on Plasmodium falciparum. 83.2

Please report the measured INHIBITION for Cc1nn(-c2ccc(C(=O)O)cc2)c2c1C(c1cccs1)SCC(=O)N2 (stereo unspecified) tested on Plasmodium falciparum. -57.4

Please report the measured INHIBITION for C[C@@H]1CN(C2CCOC2)C[C@]12CCN(c1cccnc1)C2=O (stereo partly specified) tested on Plasmodium falciparum. -78.9

Please report the measured INHIBITION for CCN1CCN(C(=O)Cc2ccc(S(=O)(=O)C(F)F)cc2)CC1 tested on Plasmodium falciparum. -124

Please report the measured INHIBITION for NCC1(c2cccc(C(F)(F)F)c2)CC1 tested on Plasmodium falciparum. -97.7

Please report the measured INHIBITION for O=C1CC2(CCNCC2)C(=O)N1c1cccc(F)c1 tested on Plasmodium falciparum. -155

Please report the measured INHIBITION for c1cncc(COC[C@H]2CC[C@H]3[C@H](CCN3Cc3nccs3)O2)c1 tested on Plasmodium falciparum. -35.5

Please report the measured INHIBITION for O=C1[C@H]2CN(Cc3ccc(F)cc3)C[C@H]2CN1c1cncnc1 tested on Plasmodium falciparum. 2.38

Please report the measured INHIBITION for O=S(=O)(c1ccc(Cl)cc1)N1C[C@@H]2CCN[C@@H]2C1 tested on Plasmodium falciparum. 82

Please report the measured INHIBITION for NCC1(c2cccc(F)c2)CCOCC1 tested on Plasmodium falciparum. 2.49

Please report the measured INHIBITION for CCN(CC)CCN1CCO[C@H]2[C@@H](OCc3ccncc3)CC[C@@H]21 tested on Plasmodium falciparum. -18.1

Please report the measured INHIBITION for c1cncc(OC[C@@]23CCC[C@@H]2CN(CC2CCOCC2)C3)c1 tested on Plasmodium falciparum. 39

Please report the measured INHIBITION for CC(c1ccc(F)cc1)N1CCN(Cc2ccc(C#N)cc2)CC1 (stereo unspecified) tested on Plasmodium falciparum. -14.8

Please report the measured INHIBITION for Cc1nc(CO[C@@H]2CN(Cc3cccnc3)[C@@H]3COC[C@@H]32)cs1 tested on Plasmodium falciparum. -14.2

Please report the measured INHIBITION for CCO[C@H]1CN(CC2CC2)[C@@H]2CCCO[C@H]12 tested on Plasmodium falciparum. -82.9

Please report the measured INHIBITION for Cc1ccc(CC(=O)N2CCCN(Cc3nccn3C)CC2)cn1 tested on Plasmodium falciparum. -72.4

Please report the measured INHIBITION for Cc1cccc(CN2C[C@@H]3COC[C@H](NS(C)(=O)=O)[C@@H]3C2)n1 tested on Plasmodium falciparum. -96.6

Please report the measured INHIBITION for Cc1ccccc1CNC(Cn1cncn1)c1ccccc1 (stereo unspecified) tested on Plasmodium falciparum. -47.8

Please report the measured INHIBITION for O=C1[C@@H]2CCN(CC3CC3)C[C@@H]2OCCN1c1cccnc1 tested on Plasmodium falciparum. -73.4

* * *

test system: Plasmodium falciparum; experiment: Screen against P. falciparum Asexual Blood Stage (ABS), at 5uM; assay type: functional, Dd2; conditions: tested at 5 uM
About 2,100 (3.2%) of roughly 65,000 compounds showed an effect of 50% or more. The median lay at about -52%. The full list was thinned out, with strong results kept by preference.
# label = MET if INHIBITION >= -40% else NOT MET

Is INHIBITION for CC(C)(C)c1cn2c(n1)C(CNCc1ccccn1)CCC2 (stereo unspecified) at or above -40%? MET

Is INHIBITION for CCC1=N[C@@]2(CC[C@@H]3CN(CC)C[C@@H]32)C(=O)N1C at or above -40%? NOT MET

Is INHIBITION for Cn1cccc1CNCC1CCCn2cc(C(C)(C)C)nc21 (stereo unspecified) at or above -40%? MET

Is INHIBITION for Cc1noc(C)c1CN1CC[C@H]2OCC[C@@]2(C(=O)N(C)C)C1 at or above -40%? NOT MET

Is INHIBITION for Cc1oc(-c2ccco2)nc1CC(=O)N1CCN(CC(C)O)CC1 (stereo unspecified) at or above -40%? NOT MET

Is INHIBITION for CC(C)(C)c1cn2c(n1)C(CNCc1cnn3ccccc13)CCC2 (stereo unspecified) at or above -40%? MET

Is INHIBITION for Cc1cccc(OCC2CCCN(C(=O)CN(C)C3CCNCC3)C2)c1 (stereo unspecified) at or above -40%? MET

Is INHIBITION for CC(C)C(=O)N1CCCC2(CCCN2Cc2cccnc2)C1 (stereo unspecified) at or above -40%? MET

Is INHIBITION for CC1=N[C@@]2(CC[C@@H]3CNC[C@@H]32)C(=O)N1CC(C)C at or above -40%? NOT MET

Is INHIBITION for COc1cccc(-n2ccc3nc(N4CCCC4)ncc3c2=O)c1 at or above -40%? MET
